pIC50 values by entry
# TARGET OF ASSAY: HarmOBP7-wt (Helicoverpa armigera, UniProt F5ANI5)
# Sequence (F5ANI5 entry or part of it): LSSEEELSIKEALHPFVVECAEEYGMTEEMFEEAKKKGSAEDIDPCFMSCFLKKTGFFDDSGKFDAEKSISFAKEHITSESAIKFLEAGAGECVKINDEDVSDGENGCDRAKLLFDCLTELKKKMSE
# TEST PROTOCOL: Competitive binding assay, displacement of 1-NPN from HarmOBP7-wt
# REPORTED CONDITIONS: HarmOBP7-wt, 2 µM protein and 2 µM 1-NPN, pH 7.4; concentration of ligand halving initial 1-NPN fluorescence; read-out: [IC]50
# log scale: pIC50 equals minus log10 of the concentration in mol/L

{"columns": ["COMPOUND", "TARGET OF ASSAY", "pIC50"],
 "data": [
  ["CC(C)c1ccc(C=O)cc1", "HarmOBP7-wt (Helicoverpa armigera, UniProt F5ANI5)", 4.98],
  ["CCCCOC(=O)c1ccc(C(C)(C)C)cc1 [Butyl p-tert-butyl benzoate]", "HarmOBP7-wt (Helicoverpa armigera, UniProt F5ANI5)", 5.16],
  ["CCCCCCCCCCCCCC=O", "HarmOBP7-wt (Helicoverpa armigera, UniProt F5ANI5)", 5.49],
  ["CCCCCCCCCCCCCC(=O)OCC [Ethyl myristate]", "HarmOBP7-wt (Helicoverpa armigera, UniProt F5ANI5)", 5.33],
  ["CCCCCCCCCCCC=O", "HarmOBP7-wt (Helicoverpa armigera, UniProt F5ANI5)", 4.99]
]}

Kindly review the next compound as well.
Give reported pIC50 value for CCCCCCCCCCC=O
4.97

###

pKd values by entry
# TARGET OF ASSAY: HarmOBP7-wt (Helicoverpa armigera)
# TEST PROTOCOL: Competitive binding assay, displacement of 1-NPN from HarmOBP7-wt
# REPORTED CONDITIONS: HarmOBP7-wt; calculated from [IC]50: KD = [IC50]/1+[1-NPN]/K1-NPN; read-out: KD (calculated dissociation constant)
# log scale: pKd equals minus log10 of the concentration in mol/L

{"columns": ["MOLECULE", "pKd"],
 "data": [
  ["CCCCCCCCCCCCC=O", 5.43],
  ["CCCCCCCCCCCCCC(=O)OCC [Ethyl myristate]", 5.46],
  ["CCCCCCCCCCC=O", 5.09],
  ["CCCCCCCCCCCCCCCCC=O", 5.16],
  ["CCCCCCCCCCCCCO", 5.46],
  ["CCCCCCCCCCCCCC=O", 5.62]
]}

Report value: pKd, system: HarmOBP7-wt (Helicoverpa armigera), molecule: CCCCCCCCCCCCCCCC(=O)OCC [Ethyl palmitate]
4.90

###

# TARGET OF ASSAY: HarmOBP7-wt (Helicoverpa armigera, UniProt F5ANI5)
# TEST PROTOCOL: Competitive binding assay, displacement of 1-NPN from HarmOBP7-wt
# REPORTED CONDITIONS: HarmOBP7-wt; calculated from [IC]50: KD = [IC50]/1+[1-NPN]/K1-NPN; read-out: KD (calculated dissociation constant)
# Protocol: Emission fluorescence spectra were recorded on a Hitachi F-4500 at 25°C in a right angle configuration, with a 1 cm light path quartz cuvette and 5 nm slits for both excitation and emission. The protein was dissolved in 50 mM Tris-HCl buffer, pH 7.4, while ligands were added as 1 mM methanol solutions. The probe was excited at 337 nm and emission spectra were recorded between 380 and 450 nm. […]
# Kd binned as class A: < 4 µM; class B: ≥ 4 µM and < 7 µM; class C: ≥ 7 µM

Worked examples, 4 compounds total:
{"columns": ["COMPOUND", "LABEL"],
 "data": [
  ["CCCCC/C(C=O)=C/c1ccccc1", "class B"],
  ["CCCCOC(=O)c1ccc(C(C)(C)C)cc1 [Butyl p-tert-butyl benzoate]", "class B"],
  ["CC(C)CCCC(C)CCOC(=O)c1ccccc1 (centres unmarked) [3,7-Dimethyloctylbenzoate]", "class A"],
  ["CC(C)(C)c1ccc(C(=O)c2ccccc2)cc1", "class A"]
]}

Which band does CCCCCCCCCCCC(C)=O fall in?
class C

Which band does CCCCCCCCCCCC(=O)OCC [Ethyl laurate] fall in?
class A

Which band does CCCCOC(=O)/C=C/c1ccccc1 [Butyl cinnamate] fall in?
class C

Which band does CCCCCCCCCCCC=O fall in?
class C

Which band does CC(C)c1ccc(C=O)cc1 fall in?
class C

Which band does COc1ccccc1C=CC=O fall in?
class C

###

# TARGET OF ASSAY: HarmOBP7-m1 (Helicoverpa armigera, UniProt F5ANI5)
# Sequence (F5ANI5 22-142): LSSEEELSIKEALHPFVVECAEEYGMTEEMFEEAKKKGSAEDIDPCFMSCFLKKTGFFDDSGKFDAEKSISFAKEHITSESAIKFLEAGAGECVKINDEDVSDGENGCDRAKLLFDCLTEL
MEASURED ATTRIBUTE: Kd (µM)
Express it in µM; write the number only.

Report value: Kd, system: HarmOBP7-m1 (Helicoverpa armigera, UniProt F5ANI5), compound: c1ccc(Nc2cccc3ccccc23)cc1
6.8

###

# TARGET OF ASSAY: HarmOBP7-wt (Helicoverpa armigera)
# TEST PROTOCOL: Competitive binding assay, displacement of 1-NPN from HarmOBP7-wt
MEASURED ATTRIBUTE: IC50

Past entries and their recorded results:
{"columns": ["SMILES STRING", "TARGET OF ASSAY", "OBSERVED MEASUREMENT"],
 "data": [
  ["COc1cc(CC(=O)O)ccc1O", "HarmOBP7-wt (Helicoverpa armigera)", "> 16 µM"],
  ["O=C(O)/C=C/c1ccccc1", "HarmOBP7-wt (Helicoverpa armigera)", "> 25 µM"],
  ["CCCCCCCCCCO", "HarmOBP7-wt (Helicoverpa armigera)", "> 16 µM"]
]}

Kindly review the next compound as well.
Report value: IC50, system: HarmOBP7-wt (Helicoverpa armigera), compound: Cc1ccc2ccccc2c1
> 16 µM

Values were extracted from paper PMC3555816.
